// provenance: PubChem BioAssay (NCATS)

The entries below come with measured activity change, negative = inhibition values attached.
ASSAY SUMMARY: NFAT Signaling Pathway (AID 444);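 also: carbachol stimulus at about its EC50 of 1 µM final; % is scaled to controls: 0 for no effect and ±100 for the full control effect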
TEST SETTINGS: Jurkat NFAT-bla M1, carbachol, beta-lactamase ratio, 5 h; at 7.69 µM (top of the series) unless noted
Results filed as inconclusive are left out.
Numbers only here, please. The scale is %.

{"COMPOUND STRUCTURE": "C[C@](O)(c1ccccc1)c1nccc2ccccc12", "activity change, negative = inhibition, %": 3.41}
{"COMPOUND STRUCTURE": "O=C(O)c1ccc2c(c1C(=O)O)C(=O)OC2(c1ccc(O)cc1)c1ccc(O)cc1", "activity change, negative = inhibition, %": 0.0722}
{"COMPOUND STRUCTURE": "COCCn1c(=O)c(-c2ccc(OC)cc2)nc2cnc(Oc3ccccc3)nc21", "activity change, negative = inhibition, %": 12.7}
{"COMPOUND STRUCTURE": "Cc1cc(Cl)ccc1Nc1sc(C(=O)c2cc3cc(Cl)ccc3o2)c(N)c1C#N", "activity change, negative = inhibition, %": 14.9}
{"COMPOUND STRUCTURE": "O=C(O)c1ccc(C(=O)c2ccccc2C(=O)O)cc1C(=O)O", "activity change, negative = inhibition, %": 20.9}

Entry under review: `NC(N)=NC(N)=Nc1ccc(S(=O)(=O)O)cc1` . Reported activity change, negative = inhibition?
0.0165

---

ASSAY SUMMARY: Cell Viability - LYMP2-016 (AID 984);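 also: cells exposed to compound for 24 hours at 37 °C; nearly all actives have a fitted effect of over 55% in size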; also: potency is read from the fitted curve at half-maximal effect
TEST SETTINGS: LYMP2-016 lymphoblastoid cell viability, qHTS; series mostly up to 92.2 µM
Inconclusive results are not listed. Activity calls are given as the source filed them. Calls follow the shape of the dose curve; as a rule, active = well fitted cell-killing curve with a large enough effect; inconclusive = small, poorly fitted or top-dose-only effect; inactive = flat fitted curve, though single readings scatter.
MEASURED PROPERTY: Potency

Here are 10 compounds together with their reported answers.
{"COMPOUND": "Cc1ccc(N)cc1[N+](=O)[O-]", "Potency": "inactive"}
{"COMPOUND": "CC/C=C/C/C=C/C/C=C/CCCCCCCC(=O)OCC", "Potency": "39.8 µM (active)"}
{"COMPOUND": "OCC(CBr)(CBr)CBr", "Potency": "inactive"}
{"COMPOUND": "CC(=O)c1ccc(Cl)c(Cl)c1Cl", "Potency": "inactive"}
{"COMPOUND": "CC1=C(/C=C/C(C)=C/C=C/C(C)=C/C=O)C(C)(C)CCC1", "Potency": "50.1 µM (active)"}
{"COMPOUND": "Cc1cc2nc(N)sc2cc1C", "Potency": "inactive"}
{"COMPOUND": "CCOC(=O)C1OC1c1ccccc1 (stereo not given)", "Potency": "inactive"}
{"COMPOUND": "C/C=C/C=C/C=O", "Potency": "50.1 µM (active)"}
{"COMPOUND": "Cc1ccc(C(=O)O)cc1[N+](=O)[O-]", "Potency": "inactive"}
{"COMPOUND": "Cc1cccnc1", "Potency": "inactive"}

Looking for the measured Potency of `Brc1ccc(-c2ccccc2)cc1` , can you help?
inactive

Consider the compound `C=C(C#N)C(=O)OCC` and give its measured Potency.
inactive

# lookup: Potency of CC(C)OCC1CO1 (stereo not given)
inactive

I would be grateful if you could share the reported Potency for `O=CC(=O)c1ccccc1` .
inactive

# query: Potency of entry `O=C(Cl)c1ccc([N+](=O)[O-])cc1`
inactive
